Ref: ChEMBL document CHEMBL4507257

# TARGET SYSTEM: sodium channel (site 2) (Homo sapiens, UniProt P35498+P35499+Q01118+Q14524+Q15858+Q99250+Q9NY46+Q9UI33+Q9UQD0+Q9Y5Y9)
# RUN DESCRIPTION: Na+ channel (site 2) Ligand binding assay
# Format: protein assay
# STATED CONDITIONS: compound concentration 3 uM
READOUT NAME: inhibition at 3 µM

**Q:** Indicate the recorded inhibition at 3 µM value for this compound: Cn1cncc1[C@](O)(COc1ccc(C#N)cc1-c1ccc(OC(F)(F)F)cc1)c1ccc(C#N)cc1
**A:** 22% (not active)
